target: recombinant DYRK1A kinase (Homo sapiens); test: DYRK1A kinase assay (Ser/Thr 18 peptide Z-lyte FRET); conditions: DYRK1A 0.25 μg/mL, ATP 15 μM, Ser/Thr peptide 18 4 μM, one hour at room temperature, 11-point dose-response from 10 μM
pIC50: −log10 of the molar value.
MEASUREMENT TYPE: pIC50

For orientation, consider the following solved cases.
COMPOUND	pIC50
CN1CC[C@@H](Nc2nc(N)c3c(-c4ccc5nnn(CCF)c5n4)ccn3n2)C(F)(F)C1 [Compound 221]	8.55
CNc1nc(N[C@H]2C[C@](C)(O)C2)nn2ccc(-c3ccc4ncn(CC(F)(F)F)c4n3)c12 [Compound 132]	8.92
CNc1nc(N[C@H]2CCN(CCOC)C[C@H]2F)nn2ccc(-c3ccc4nnn(CC(F)F)c4n3)c12 [Compound 275]	8.08
CN1CC[C@H](Nc2nc(N)c3c(-c4ccc5ncn(CC(F)F)c5n4)ccn3n2)[C@H](F)C1 [Compound 120]	9.15
CNc1nc(N[C@H]2CC[C@](C)(O)CC2)nn2ccc(-c3ccc4nnn(CCF)c4n3)c12 [Compound 234]	9.10
CNc1nc(N[C@H]2CCN(C3COC3)C[C@H]2F)nn2ccc(-c3ccc4nc(C)n(C(F)F)c4n3)c12 [Compound 135]	8.19
Nc1nc(N[C@@H]2CCN(C3COC3)CC2(F)F)nn2cc(F)c(-c3ccc4nccn4n3)c12 [Compound 43]	8.51
CNc1nc(N[C@H]2CCN(CCF)C[C@H]2F)nn2ccc(-c3ccc4nnn(CC(F)F)c4n3)c12 [Compound 274]	8.44
CNc1nc(N[C@@H]2CCN(C(C)=O)CC2(F)F)nn2cc(F)c(-c3ccc4nnn(CCF)c4n3)c12 [Compound 252]	8.72
CNc1nc(N[C@@H]2CCN(C(C)=O)CC2(F)F)nn2ccc(-c3ccc4nnn(CCF)c4n3)c12 [Compound 238]	8.85

1 = CC(=O)N1CC[C@@H](Nc2nc(N)c3c(-c4ccc5nc(C)n(CCF)c5n4)c(F)cn3n2)C(F)(F)C1 [Compound 147]
2 = CC(=O)N1CC[C@H](Nc2nc(N)c3c(-c4ccc5nc(C)n(CCF)c5n4)c(F)cn3n2)[C@H](F)C1 [Compound 144]
**Query** From the recorded data, which exceeds the other in pIC50: 1 or 2 ? Refer to your chosen entry by its label in the reply.
**Result** 1

---

target: recombinant DYRK1A kinase (Homo sapiens, UniProt Q13627); assay: DYRK1A kinase assay (Ser/Thr 18 peptide Z-lyte FRET); conditions: DYRK1A 0.25 μg/mL, ATP 15 μM, Ser/Thr peptide 18 4 μM, one hour at room temperature, 11-point dose-response from 10 μM
MEASUREMENT TYPE: IC50 (nM)

For orientation, consider the following solved cases.
1) CNc1nc(N[C@@H]2CCN(C3COC3)CC2(F)F)nn2cc(F)c(-c3ccc4nnn(CC(F)F)c4n3)c12 1.4
2) CN1CC[C@@H](Nc2nc(N)c3c(-c4ccc5nnn(CC(F)F)c5n4)c(F)cn3n2)C(F)(F)C1 0.6
3) CNc1nc(N[C@H]2CC[C@](C)(O)CC2)nn2cc(F)c(-c3ccc4nc(C)n(CCF)c4n3)c12 3.1
4) CNc1nc(N[C@H]2CCN(C(C)=O)C[C@H]2F)nn2cc(F)c(-c3ccc4nnn(CC(F)F)c4n3)c12 2.4
5) CCn1nnc2ccc(-c3c(F)cn4nc(N[C@@H]5CCN(C(C)=O)CC5(F)F)nc(NC)c34)nc21 2.6

P = CNc1nc(N[C@H]2CCN(C3COC3)C[C@H]2F)nn2ccc(-c3ccc4nnn(CCCF)c4n3)c12
Q = CNc1nc(N[C@@H]2CCN(C(=O)CO)CC2(F)F)nn2ccc(-c3ccc4nc(C)n(CC(F)F)c4n3)c12
**Query** Input pair: P , Q . Output: entry with lower IC50. Refer to your chosen entry by its label in the reply.
**Result** Q
(Q: 1.3 nM, P: 4.4 nM)
